system: DU-145 prostate; experiment: NCI-60 one-dose screen, 48 h (100 = growth as untreated, 0 = no growth, -100 = all killed); conditions: 10 µM unless noted
This is part of a sample that, as a whole, favours compounds with a hit. Of some 83,000 tested, about 20% had one in any assay.
Group membership follows growth per the scheme lowest = under 50%, middle = from 50% up to 90%, highest = 90% and over

Each compound maps to one class by growth. Which class for "CS(=O)(=O)N(c1cc(-c2ccc3ncnc(Nc4cccc(Cl)c4)c3c2)cnc1Cl)S(C)(=O)=O" ?
lowest

Next up: "CCn1cc(C(=O)O)c(=O)c2cc(F)c(N3CCN(S(=O)(=O)c4ccc(OC)c(OC)c4)CC3)cc21"
highest

Next up: "O=C1CCC(=O)N1Cc1ccccc1"
highest

Next up: "COc1cc(CNC(=O)CCSc2nc3ccccc3c(=O)n2Cc2cc(OC)c(OC)c(OC)c2)cc(OC)c1OC"
middle

Next up: "O=c1[nH]c2ccccc2cc1-c1nnc(Cc2ccccc2)o1"
middle

Next up: O=C(CC(O)c1ccncc1)c1ccccc1 (stereo not given)
lowest

Next up: COc1ccc(C2CC(=O)Nc3c2c(C)nn3-c2nc3ccccc3[nH]2)cc1OC (stereo not given)
middle

Next up: "CCN(Cc1ccccc1)c1ccc(SC#N)cc1"
highest

Next up: COc1cc(/C=C2\CCCC3=C2N=C2SC(C)=NN2C3c2cc(OC)c(OC)c(OC)c2)cc(OC)c1OC (stereo not given)
lowest
